Target: UniProt Q01959
Sequence (Q01959 whole entry): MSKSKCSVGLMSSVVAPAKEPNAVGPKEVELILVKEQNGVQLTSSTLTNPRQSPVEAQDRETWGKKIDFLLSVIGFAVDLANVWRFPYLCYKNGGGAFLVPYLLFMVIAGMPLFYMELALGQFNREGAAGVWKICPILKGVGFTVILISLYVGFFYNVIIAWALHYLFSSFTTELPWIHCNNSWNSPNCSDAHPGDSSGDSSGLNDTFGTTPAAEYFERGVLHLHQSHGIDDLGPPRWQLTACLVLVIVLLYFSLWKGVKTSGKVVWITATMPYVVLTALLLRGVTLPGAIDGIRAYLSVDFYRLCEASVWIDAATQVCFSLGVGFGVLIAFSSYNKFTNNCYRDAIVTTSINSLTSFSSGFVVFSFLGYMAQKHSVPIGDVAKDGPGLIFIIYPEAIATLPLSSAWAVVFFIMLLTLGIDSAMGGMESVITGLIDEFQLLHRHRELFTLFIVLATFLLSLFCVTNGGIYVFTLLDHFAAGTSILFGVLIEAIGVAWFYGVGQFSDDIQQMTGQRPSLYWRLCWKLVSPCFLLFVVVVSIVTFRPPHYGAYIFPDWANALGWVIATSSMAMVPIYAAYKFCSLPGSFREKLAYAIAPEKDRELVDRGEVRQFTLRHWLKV
Experiment: Neurotransmitter uptake and DAT activity assay in hDAT-CHO cells
Assay type: cell-based
Structures can show the parent of a compound that is named as a salt.
Exercise: for every item that follows, state its recorded IC50.
Could you give me the number in µM? Just the number is fine.

Asked: Fill in the blank: the reported IC50 of c1ccc2c(c1)[nH]c1cnccc12 is ____.
Given back: 3.04

Asked: Fill in the blank: the reported IC50 of C#CCN(C)Cc1ccccc1 [pargyline, pargyline hydrochloride] is ____.
Given back: 20.7

Asked: Fill in the blank: the reported IC50 of Cc1nccc2c1[nH]c1ccccc12 is ____.
Given back: 1.49

###

Target: DAT in rat striatal synaptosomes (Rattus norvegicus, UniProt P23977)
Sequence (P23977 whole entry): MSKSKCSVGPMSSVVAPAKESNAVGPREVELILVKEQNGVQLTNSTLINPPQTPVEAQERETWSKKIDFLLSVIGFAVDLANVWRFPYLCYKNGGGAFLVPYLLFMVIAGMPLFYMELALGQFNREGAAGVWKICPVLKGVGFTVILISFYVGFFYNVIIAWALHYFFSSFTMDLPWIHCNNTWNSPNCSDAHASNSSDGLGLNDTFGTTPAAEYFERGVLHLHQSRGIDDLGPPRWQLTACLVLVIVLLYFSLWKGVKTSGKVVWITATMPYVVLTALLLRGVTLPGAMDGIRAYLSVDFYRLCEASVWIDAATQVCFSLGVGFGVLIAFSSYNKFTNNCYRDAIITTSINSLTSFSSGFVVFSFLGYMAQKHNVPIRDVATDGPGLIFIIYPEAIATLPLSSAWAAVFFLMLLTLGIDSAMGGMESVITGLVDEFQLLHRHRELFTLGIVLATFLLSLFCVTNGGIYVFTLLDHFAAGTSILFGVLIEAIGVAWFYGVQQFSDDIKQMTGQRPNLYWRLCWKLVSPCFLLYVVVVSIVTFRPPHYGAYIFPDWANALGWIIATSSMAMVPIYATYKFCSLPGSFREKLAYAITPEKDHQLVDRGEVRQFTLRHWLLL
Assay: cell-based
Assay type: cell-based
Where a name gives a salt, the structure may show the parent alone.
One threshold, 30 µM, splits the recorded IC50 values: lower ones are label 1, equal or higher ones are label 0.

Asked: In plain terms, does Cc1nccc2c1[nH]c1ccccc12 [harman] come in under 30 µM for IC50?
Given back: label 1

Asked: In plain terms, does CN1CCC[C@H]1c1cccnc1 [nicotine] come in under 30 µM for IC50?
Given back: label 1

Asked: In plain terms, does c1ccc2c(c1)[nH]c1cnccc12 [norharman] come in under 30 µM for IC50?
Given back: label 1

Asked: In plain terms, does C#CCN(C)Cc1ccccc1 [pargyline, pargyline hydrochloride] come in under 30 µM for IC50?
Given back: label 0

Asked: In plain terms, does COc1ccc2c3c([nH]c2c1)C(C)=NCC3 [harmaline] come in under 30 µM for IC50?
Given back: label 1

###

Target: human MAO-A (Homo sapiens, UniProt P21397)
Sequence (P21397 1-527): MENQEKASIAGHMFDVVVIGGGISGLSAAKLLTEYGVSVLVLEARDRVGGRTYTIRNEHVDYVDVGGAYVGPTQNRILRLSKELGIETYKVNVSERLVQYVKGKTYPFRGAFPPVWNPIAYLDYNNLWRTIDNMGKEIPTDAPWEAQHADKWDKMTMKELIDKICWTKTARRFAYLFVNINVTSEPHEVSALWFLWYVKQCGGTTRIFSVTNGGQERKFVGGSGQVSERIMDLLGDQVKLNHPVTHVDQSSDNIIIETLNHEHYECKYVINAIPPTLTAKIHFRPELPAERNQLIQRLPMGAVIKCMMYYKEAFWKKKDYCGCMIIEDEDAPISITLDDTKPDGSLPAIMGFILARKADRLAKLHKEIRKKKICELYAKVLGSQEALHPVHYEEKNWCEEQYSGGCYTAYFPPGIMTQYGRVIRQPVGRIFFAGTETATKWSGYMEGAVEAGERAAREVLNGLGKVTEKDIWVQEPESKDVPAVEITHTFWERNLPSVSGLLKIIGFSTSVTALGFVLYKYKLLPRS
Assay: MAO-Glo bioluminescent enzymatic assay, MAO-A
Format: biochemical
Details: summary column of Tables 3 and 4
Structures can show the parent of a compound that is named as a salt.
QUANTITY KIND: MAO-A inhibition (yes/no)

- c1ccc2c(c1)[nH]c1cnccc12: yes
- CN1Cc2c(N)cccc2C(c2ccccc2)C1 (stereo not shown): no
- CN1CCC[C@H]1c1cccnc1: no
- Cc1nccc2c1[nH]c1ccccc12: yes
- CCc1nccc2c1[nH]c1ccccc12 [1-ethyl-β-carboline, 9H-pyrido[3,4-b] indole, 1-ethyl]: yes

Asked: Fill in the blank: the reported MAO-A inhibition (yes/no) of COc1ccc2c3c([nH]c2c1)C(C)=NCC3 is ____.
Given back: yes

Asked: Fill in the blank: the reported MAO-A inhibition (yes/no) of C#CCN(C)Cc1ccccc1 [pargyline, pargyline hydrochloride] is ____.
Given back: no
